Numbers sourced from patent USRE50663E1.

Reported pest or weed control at 100 g/ha is given for each of the following compounds.
- Test system: larvae of the mustard beetle (Phaedon cochleariae)
- method: Phaedon cochleariae spray test
- Format: in vivo
- condition_parameters: in Brassica rapa, foliar, 168 h, read-out: efficacy
measured_attribute: pest or weed control at 100 g/ha (%)

structure_notation=CCS(=O)(=O)c1c(-c2nc3cc(C(F)(F)F)cnc3n2C)nc2cc(NC(=O)OC3CCC3)ccn12 measured_attribute="pest or weed control at 100 g/ha" recorded_number=67
structure_notation=CCS(=O)(=O)c1c(-c2nc3cc(C(F)(F)F)cnc3n2C)nc2cc(NC(=O)OCC3CC3)ccn12 measured_attribute="pest or weed control at 100 g/ha" recorded_number=100
structure_notation=CCS(=O)(=O)c1c(-c2nc3cc(C(F)(F)F)cnc3n2C)nc2cc(NC(=O)OC3(C)CC3)ccn12 measured_attribute="pest or weed control at 100 g/ha" recorded_number=100
structure_notation=CCS(=O)(=O)c1c(-c2nc3cc(C(F)(F)F)cnc3n2C)nc2cc(NC(=S)OCC3CC3)ccn12 measured_attribute="pest or weed control at 100 g/ha" recorded_number=100
structure_notation=C=CCOC(=O)Nc1ccn2c(S(=O)(=O)CC)c(-c3nc4cc(C(F)(F)F)cnc4n3C)nc2c1 measured_attribute="pest or weed control at 100 g/ha" recorded_number=100
